Let's look at some molecules and their measured RP-LC retention time.
Assay: gradient 5% acetonitrile 3 min, to 50% in 2 min, to 85% in 15 min, held 3 min, 100 µL/min
Conditions: column: Zorbax Extend-C18 2.1 x 50 mm; eluents: water / acetonitrile, 0.1% formic acid
# output: bare number, implied unit s

# example entries with known answers
# molecule, quantitativeReadout
data = [
    ("CCCNc1cc(N2CCCC(CCC(=O)NCc3ccc(F)cc3)C2)ncn1 (centres undefined)", 683),
    ("CCc1ccccc1NC(=O)C1CC(=O)N(c2ccc3c(c2)CCN3C(C)=O)C1 (centres undefined)", 698),
    ("O=c1c2ccccc2c(-c2nc(-c3cccnc3)no2)cn1-c1cccc(F)c1", 709),
]

Ask | What measured RP-LC retention time goes with O=C(NCc1ccccc1F)C1CCCN(c2nnc3c(Cl)cccn23)C1 (centres undefined) ?
Reply | 710

###

Assay: gradient 5% acetonitrile 3 min, to 50% in 2 min, to 85% in 15 min, held 3 min, 100 µL/min
Conditions: column: Zorbax Extend-C18 2.1 x 50 mm; eluents: water / acetonitrile, 0.1% formic acid
# RP-LC retention time annotations
Respond with the bare value in s.

Take a look at these entries with their results.
# compound, RP-LC retention time / s
data = [
    ("COc1ccc(S(=O)(=O)N2CCCC(Cn3cnc4cccnc43)C2)cc1OC (configuration not stated)", 773),
    ("CCN(CC)C(=O)c1c(C)sc2ccn(C)c(=O)c12", 639),
]

Ask | Item under review: CN(C(=O)Cn1ccn2nc(-c3ccc(F)cc3)c(CO)c2c1=O)c1ccccc1 . Reported RP-LC retention time?
Reply | 924

Ask | Same for Cc1cccn2c(Nc3ccc4c(c3)OCCO4)c(-c3ccc(N(C)C)cc3)nc12
Reply | 735

Ask | Try this compound next: Cc1ccc(NC(=O)C2CCN(S(=O)(=O)c3ccc4c(c3)sc(=O)n4C(C)C)CC2)cc1
Reply | 942

Ask | Next compound up: Cc1c(Cl)ccc2c(=O)c3c([nH]c12)CCN(CC(=O)NCc1ccc2c(c1)OCO2)C3
Reply | 666

Ask | Next record, please: COCCCNC(=O)C1CCN(c2cnn(Cc3ccccc3)c(=O)c2)CC1
Reply | 651

Ask | Now give it for CC(C)Cn1ccc2c(cc(C(=O)Nc3ccc(C(C)C)cc3)n2C)c1=O too.
Reply | 1030

Ask | How about CC(C)Cn1c(=O)c(N2CCN(S(=O)(=O)c3ccccc3F)CC2)nc2ccncc21 ?
Reply | 743

Ask | Please do the same for CCCS(=O)(=O)N(C)C1CCc2nn(Cc3ccccc3)c(=O)n2CC1 (configuration not stated) as well.
Reply | 755

Ask | One more compound: Cn1c(=O)n([C@H]2CCN(C(=O)Nc3ccc4c(c3)OCCO4)C2)c2ncccc21
Reply | 686

Ask | What about this compound? O=C(Cc1cccs1)N1CCCC1(CO)Cc1ccccc1 (configuration not stated)
Reply | 853

###

Overview of reported RP-LC retention time across a group of compounds:
Experiment: gradient 5% acetonitrile 3 min, to 50% in 2 min, to 85% in 15 min, held 3 min, 100 µL/min
Settings: column: Zorbax Extend-C18 2.1 x 50 mm; eluents: water / acetonitrile, 0.1% formic acid
Please state the figure in s; there is no need to write the unit.

# compound, RP-LC retention time [s]
records = [
    ("Cc1cc(N2CCN(C(=O)c3ccc4c(c3)OCO4)CC2)nc2nnc(C)n12", 595),
]

Ask | Query (compound): COc1ccc(C2C(=O)N(CCc3ccccc3)CC(=O)N2Cc2cccs2)cc1 (stereo unspecified) ; field requested: RP-LC retention time
Reply | 964

Ask | Same thing, different compound: CCOC(=O)[C@@H](N)Cc1ccc(O)c(O)c1
Reply | 579

Ask | Now the same for CN1CC[C@@H]2CN3CCc4cccc(c43)[C@@H]2C1
Reply | 644

###

Assay: gradient 5% acetonitrile 3 min, to 50% in 2 min, to 85% in 15 min, held 3 min, 100 µL/min
Details: column: Zorbax Extend-C18 2.1 x 50 mm; eluents: water / acetonitrile, 0.1% formic acid
# binarize RP-LC retention time: threshold 800 s inclusive, high side yes (1), low side no (0)

# compound, labelValue
rows = [
    ("CCN1CCCn2nc(C3CCN(C(=O)c4cccnc4SC)CC3)cc2C1=O", "no (0)"),
]

Ask | Can Cc1c(Cl)cccc1NC(=O)CCc1ccc2nc[nH]c2c1 be said to have RP-LC retention time at or above 800 s?
Reply | no (0)

Ask | Now the compound CN1CCC(OC(c2ccccc2)c2ccccc2)CC1
Reply | no (0)

Ask | What do we get for COc1ccc(Nc2c(-c3ccc(C)cc3)nc3cnccn23)cc1 ?
Reply | yes (1)

Ask | Query COCCC1CCOC2(CCN(C(=O)C3CC3)CC2)C1 (stereo not drawn) next
Reply | no (0)

Ask | Also O=C(CSc1nccn1Cc1ccco1)Nc1ccccc1F , if possible.
Reply | no (0)

Ask | Try Cc1cccc(CNS(=O)(=O)c2ccc3c(c2)C(=O)N(C)c2ncccc2O3)c1 next.
Reply | yes (1)

Ask | Proceed to COc1ccc(CC(=O)N2C[C@@H]3C[C@H]2C[C@@H]3NS(C)(=O)=O)cc1
Reply | no (0)

###

Catalogue of RP-LC retention time readings, one per entry.
Assay: gradient 5% acetonitrile 3 min, to 50% in 2 min, to 85% in 15 min, held 3 min, 100 µL/min
Details: column: Zorbax Extend-C18 2.1 x 50 mm; eluents: water / acetonitrile, 0.1% formic acid
Number in s, nothing else.

Take a look at these entries with their results.
# molecule, RP-LC retention time / s
data = [
    ("Cc1ccc(-n2c(=O)n(CC(=O)NCCN3CCN(C)CC3)c3cccnc32)cc1", 589),
    ("O=C(Cc1csc2nc(-c3ccccc3)cn12)NCc1ccc(Br)cc1", 815),
    ("CCNC(=O)c1nc(C(=O)NCCc2ccc(Cl)cc2)cs1", 842),
    ("CCC(=O)N1CCCC1COc1ccc(C(=O)N2CCCC2)cc1 (configuration not stated)", 712),
    ("COc1ccc(Nc2nc(N3CCN(C)CC3)nc3c2C(=O)CCC3)cc1", 645),
    ("O=C(c1ccc2ccnc(N3CCN(c4ccccc4)CC3)c2c1)N1CCC(N2CCCCC2)CC1", 589),
]

Could you now consider this next molecule?
Ask | Name the reported RP-LC retention time value associated with the molecule COc1ccccc1NC(=O)N1CCCN(Cc2nc3cc(Cl)ccc3o2)CC1
Reply | 687

###

Measured RP-LC retention time of individual entries
Assay: gradient 5% acetonitrile 3 min, to 50% in 2 min, to 85% in 15 min, held 3 min, 100 µL/min
Details: column: Zorbax Extend-C18 2.1 x 50 mm; eluents: water / acetonitrile, 0.1% formic acid

Illustrative cases are given below, each with its answer.
# molecule, RP-LC retention time
measured = [
    ("N#Cc1cccc(C(=O)Nc2cnn(-c3ncc(N4CCCCC4)cn3)c2)c1", "847 s"),
    ("O=C(Nc1ccc(N2CCOCC2)cc1)C1CCN(c2cncnc2N2CCCC2)CC1", "602 s"),
    ("O=C(NCCCN1CCN(c2ccc(F)cc2)CC1)C1CCCN(c2nc3cccnc3s2)C1 (centres undefined)", "645 s"),
]

Now turn to the next molecule.
Ask | Need RP-LC retention time of O=C(C1CCC1)N1CCCC(CN2CCOCC2)CC1 (centres undefined) , thanks.
Reply | 574 s

###

Experiment: gradient 5% acetonitrile 3 min, to 50% in 2 min, to 85% in 15 min, held 3 min, 100 µL/min
Conditions: column: Zorbax Extend-C18 2.1 x 50 mm; eluents: water / acetonitrile, 0.1% formic acid
Definition: the class of an entry is the range in low band: < 700 s; middle band: ≥ 700 s and < 800 s; high band: ≥ 800 s that contains its RP-LC retention time.

Ask | Place this compound in its band: CCCN(CC(=O)N(Cc1ccco1)CC1CCCO1)C(=O)c1ccc2c(c1)OCO2 (stereo not drawn)
Reply | middle band

Ask | Would you kindly repeat that for Cc1ccc(CC(=O)Nc2ccc(-c3nc(Cn4nc(C)cc4C)c(C)o3)cc2)cc1 ?
Reply | low band

Ask | Likewise for CCN1CCN(C(=O)c2cc3c(=O)n(Cc4ccco4)ccc3nc2C)CC1 ?
Reply | low band

###

Assay: gradient 5% acetonitrile 3 min, to 50% in 2 min, to 85% in 15 min, held 3 min, 100 µL/min
Conditions: column: Zorbax Extend-C18 2.1 x 50 mm; eluents: water / acetonitrile, 0.1% formic acid
readoutKind: RP-LC retention time (s)
// note: answer is a bare numeric in s

# compound, RP-LC retention time (s)
records = [
    ("Cc1ncn(CC(=O)Nc2ccccc2Cl)c(=O)c1C", 668),
    ("CCOC(=O)C1CCCN(C(=O)Cn2ccc3ccc(-c4nnc(C)o4)cc32)C1 (stereo not drawn)", 785),
]

Okay, next one:
Ask | Would you kindly share the measured RP-LC retention time for CCn1cc(CC(=O)N2CCC(N3CCCCC3)CC2)c2cccnc21 ?
Reply | 553
